System: Dkk1-LRP5-TCF-Luciferase
Test: Functional Dkk1-LRP5-TCF-Luciferase Assay in U2OS Cells
Settings: maximum fold induction over DMSO control
Measured A = MAX FOLD Induction/DMSO CONTROL accompanies every entry in the list below.
Respond numerically; units are fold and should not be typed.

For orientation, consider the following solved cases.
>>> testresult("CCN(CC)c1nccc(-c2ccc3ccccc3c2)n1")
1.260
>>> testresult("Cc1ccc(S(=O)(=O)N[C@H]2CC[C@H](Nc3nccc(-c4ccc5ccccc5c4)n3)CC2)cc1")
1.230
>>> testresult("CN(C)C(=O)NCC1CCN(c2nccc(-c3ccc4ccccc4c3)n2)CC1")
1.690

Inquiry: # lookup: A = MAX FOLD Induction/DMSO CONTROL of CC(=O)N[C@H]1CCN(c2nccc(-c3ccc4ccccc4c3)n2)C1
Reply text: 4.375

Inquiry: Also need CN(C)[C@H]1CCN(C[C@H]2CCN(c3nccc(-c4ccc5ccccc5c4)n3)C2)C1 , thanks.
Reply text: 2.260

* * *

Tested on: Dkk1-LRP5-TCF-Luciferase
Assay: Functional Dkk1-LRP5-TCF-Luciferase Assay in U2OS Cells
Conditions: maximum fold induction over DMSO control
Measured A = MAX FOLD Induction/DMSO CONTROL accompanies every entry in the list below.
Respond numerically; units are fold and should not be typed.

Inquiry: # lookup: A = MAX FOLD Induction/DMSO CONTROL of OCC1CCN(c2nccc(-c3ccc4ccccc4c3)n2)C1 (stereo not shown)
Reply text: 1.975

Inquiry: Also need COc1ccc2cc(-c3ccnc(N4CCC(CN)CC4)n3)ccc2c1 , thanks.
Reply text: 3.233

Inquiry: Also need CCNC(=O)N[C@H]1CC[C@H](Nc2nccc(-c3ccc4ccccc4c3)n2)CC1 , thanks.
Reply text: 2.740

Inquiry: Also need O=C(NCC[C@H]1CCCN1c1nccc(-c2ccc3ccccc3c2)n1)C(F)(F)F , thanks.
Reply text: 1.535

Inquiry: Also need OC1CCCN([C@H]2CCN(c3nccc(-c4ccc5ccccc5c4)n3)C2)C1 (stereo partly shown) , thanks.
Reply text: 6.735

Inquiry: Also need NCC1CCN(c2nccc(-c3ccc4ccccc4c3)n2)C1 (stereo not shown) , thanks.
Reply text: 4.063

Inquiry: Also need CCN(CC)C(=O)N[C@@H]1CCN(c2nccc(-c3ccc4ccccc4c3)n2)C1 , thanks.
Reply text: 1.270

Inquiry: Also need c1ccc2cc(-c3ccnc(N4CCC(CN5CCOCC5)CC4)n3)ccc2c1 , thanks.
Reply text: 2.380

Inquiry: Also need CCN(CCO)CC1CCN(c2nccc(-c3ccc4ccccc4c3)n2)C1 (stereo not shown) , thanks.
Reply text: 3.635

Inquiry: Also need CC(=O)N[C@@H]1CCN(c2nccc(-c3ccc4ccccc4c3)n2)C1 , thanks.
Reply text: 1.610

Inquiry: Also need O=C1CCCN1[C@@H]1CCN(c2nccc(-c3ccc4ccccc4c3)n2)C1 , thanks.
Reply text: 1.935

Inquiry: Also need CS(=O)(=O)N1CC[C@@H](Nc2nccc(-c3ccc4ccccc4c3)n2)C1 , thanks.
Reply text: 3.380

Inquiry: Also need CC(=O)NC1CCCN(c2nccc(-c3ccc4ccccc4c3)n2)CC1 (stereo not shown) , thanks.
Reply text: 1.350

Inquiry: Also need O=C(NC1CCCCC1)N1CCC(CNc2nccc(-c3ccc4ccccc4c3)n2)CC1 , thanks.
Reply text: 1.230

* * *

Tested on: Dkk1-LRP5-TCF-Luciferase
Experiment: Functional Dkk1-LRP5-TCF-Luciferase Assay in U2OS Cells
Conditions: maximum fold induction over DMSO control
metric: A = MAX FOLD Induction/DMSO CONTROL (fold)
Respond numerically; units are fold and should not be typed.

>>> testresult("c1ccc2cc(-c3ccnc(N4CCNCC4)n3)ccc2c1")
2.050
>>> testresult("c1ccc2cc(-c3ccnc(N[C@H]4CCNC4)n3)ccc2c1")
1.360
>>> testresult("CN(C)C[C@H]1CCN(c2nccc(-c3ccc4ccccc4c3)n2)C1")
3.620
>>> testresult("c1ccc2cc(-c3ccnc(NCC4CNC4)n3)ccc2c1")
3.140
>>> testresult("NC(=O)C1CCN(c2nccc(-c3ccc4ccccc4c3)n2)CC1")
1.660
>>> testresult("O=C(CN1CCN(c2nccc(-c3ccc4ccccc4c3)n2)CC1)N1CCOCC1")
1.180

Inquiry: # lookup: A = MAX FOLD Induction/DMSO CONTROL of CC(=O)N1CCCN(c2nccc(-c3ccc4ccccc4c3)n2)CC1
Reply text: 1.757

Inquiry: Also need c1ccc2cc(-c3ccnc(N4CC[C@@H](Cn5ccnc5)C4)n3)ccc2c1 , thanks.
Reply text: 2.430

Inquiry: Also need CC(C)(C)NC[C@H]1CCN(c2nccc(-c3ccc4ccccc4c3)n2)C1 , thanks.
Reply text: 2.300

Inquiry: Also need c1ccc2cc(-c3ccnc(N4CC[C@@H](N5CCNCC5)C4)n3)ccc2c1 , thanks.
Reply text: 2.510

Inquiry: Also need N[C@@H]1[C@H]2CN(c3nccc(-c4ccc5ccccc5c4)n3)C[C@@H]12 , thanks.
Reply text: 5.480

Inquiry: Also need c1ccc2cc(-c3ccnc(N4CCN(CCN5CCOCC5)CC4)n3)ccc2c1 , thanks.
Reply text: 2.400

Inquiry: Also need CC(=O)N1CC[C@@H](Nc2nccc(-c3ccc4ccccc4c3)n2)C1 , thanks.
Reply text: 2.980

* * *

Measured A = MAX FOLD Induction/DMSO CONTROL accompanies every entry in the list below.
System: Dkk1-LRP5-TCF-Luciferase
Experiment: Functional Dkk1-LRP5-TCF-Luciferase Assay in U2OS Cells
Conditions: maximum fold induction over DMSO control
Respond numerically; units are fold and should not be typed.

>>> testresult("NC(=O)NC1CCCN(c2nccc(-c3ccc4ccccc4c3)n2)CC1 (stereo not shown)")
1.500
>>> testresult("CC(C)(C)N[C@H]1CCN(c2nccc(-c3ccc4ccccc4c3)n2)C1")
2.690

Inquiry: # lookup: A = MAX FOLD Induction/DMSO CONTROL of c1ccc(CNc2nccc(-c3ccc4ccccc4c3)n2)nc1
Reply text: 2.690

Inquiry: Also need c1ccc2cc(-c3ccnc(NCCCN4CCOCC4)n3)ccc2c1 , thanks.
Reply text: 2.120

* * *

Measured A = MAX FOLD Induction/DMSO CONTROL accompanies every entry in the list below.
Tested on: Dkk1-LRP5-TCF-Luciferase
Experiment: Functional Dkk1-LRP5-TCF-Luciferase Assay in U2OS Cells
Conditions: maximum fold induction over DMSO control
Respond numerically; units are fold and should not be typed.

For orientation, consider the following solved cases.
>>> testresult("CN(C[C@@H]1CCN(c2nccc(-c3ccc4ccccc4c3)n2)C1)C1CCCCC1")
3.720
>>> testresult("CS(=O)(=O)N[C@H]1CCN(c2nccc(-c3ccc4ccccc4c3)n2)C1")
1.420
>>> testresult("CN(C)C(=O)N[C@H]1CC[C@H](Nc2nccc(-c3ccc4ccccc4c3)n2)CC1")
2.270
>>> testresult("CCNC(=O)NC1CCCN(c2nccc(-c3ccc4ccccc4c3)n2)CC1 (stereo not shown)")
1.320
>>> testresult("NC(=O)N1CCCN(c2nccc(-c3ccc4ccccc4c3)n2)CC1")
2.050
>>> testresult("CN1CCN([C@@H]2CCN(c3nccc(-c4ccc5ccccc5c4)n3)C2)CC1")
1.020
>>> testresult("O=C1CCCCN1C[C@H]1CCN(c2nccc(-c3ccc4ccccc4c3)n2)C1")
2.000
>>> testresult("CN1CCN(CC2CCN(c3nccc(-c4ccc5ccccc5c4)n3)C2)CC1 (stereo not shown)")
1.340
>>> testresult("CCNC(=O)N1CC[C@@H](Nc2nccc(-c3ccc4ccccc4c3)n2)C1")
1.460
>>> testresult("c1ccc2cc(-c3ccnc(N[C@@H]4CCNC4)n3)ccc2c1")
6.560

Inquiry: # lookup: A = MAX FOLD Induction/DMSO CONTROL of CN(C)[C@@H]1CCN(C[C@H]2CCN(c3nccc(-c4ccc5ccccc5c4)n3)C2)C1
Reply text: 1.440

Inquiry: Also need c1ccc2cc(-c3ccnc(N4CCC(CN5CCCC5)C4)n3)ccc2c1 (stereo not shown) , thanks.
Reply text: 7.000

* * *

Test system: Dkk1-LRP5-TCF-Luciferase
Experiment: Functional Dkk1-LRP5-TCF-Luciferase Assay in U2OS Cells
Details: maximum fold induction over DMSO control
metric: A = MAX FOLD Induction/DMSO CONTROL (fold)
Respond numerically; units are fold and should not be typed.

For orientation, consider the following solved cases.
>>> testresult("CN(C)[C@@H]1CCN(C(=O)[C@H]2CCCN2c2nccc(-c3ccc4ccccc4c3)n2)C1")
1.630
>>> testresult("NC(=O)N[C@@H]1CCN(c2nccc(-c3ccc4ccccc4c3)n2)C1")
1.550
>>> testresult("CN(CC1CCN(c2nccc(-c3ccc4ccccc4c3)n2)CC1)C1CCCCC1")
2.160

Inquiry: # lookup: A = MAX FOLD Induction/DMSO CONTROL of c1ccc2cc(-c3ccnc(N4CC[C@@H](N5CCCC5)C4)n3)ccc2c1
Reply text: 2.760

Inquiry: Also need O=CN1CC[C@H](Nc2nccc(-c3ccc4ccccc4c3)n2)C1 , thanks.
Reply text: 3.165

Inquiry: Also need c1ccc2cc(-c3ccnc(N4CC[C@H](n5ccnc5)C4)n3)ccc2c1 , thanks.
Reply text: 3.800

Inquiry: Also need COC(=O)C(N)C1CCN(c2nccc(-c3ccc4ccccc4c3)n2)CC1 (centres unmarked) , thanks.
Reply text: 2.360
